Each recorded value in this set is attributed to the supplement of paper PMC10567573.

assay_overview: protein stability index of a GFP-peptide fusion (GPS, HEK-293T) (PSI 1-6); higher = more stable;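 also: 24-mer peptide tiles fused after GFP, lentivirally expressed, FACS-sorted into six equal bins by GFP/DsRed ratio, decoded by Illumina sequencing, PSI is the read-weighted mean bin number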
conditions_used: treatment: MLN4924 1 uM, 8 h; c terminus: a fixed tail appended
Entries annotated with measured protein stability index
attribute_measured: protein stability index

>>> print(df.to_string())
                       ordered_residues  observed
 0    AWKHGNIHLSAPCIYSEVMEALDL [PCMTD2]      2.73
 1     TRRSTAEAFQIVLSHLLGDAGSPY [SPNS1]      2.56
 2      GKIDFPRHLDFHVKDLIKKLLVVD [PRKX]      1.97
 3      CDPGTDPCPEDASTPRPPEASSSP [TLE6]      5.58
 4    QVSHDFLETRFKIQQLLEPQQYMA [FBXO34]      4.15
 5   ILAFLVLEAVAGALVVALWGPLQD [TSPAN10]      3.03
 6      CQGVSEAAHRLARRLYHLEGFQRC [PSD2]      2.54
 7      VTDYFFTLVQREEPLRILSKYHRF [CDS2]      2.42
 8    QAPGQPPGNQAEHGAVTVGGTSVG [ZBTB22]      5.17
 9  PGQPLPGASVRGLHPVQKVILNYP [TRAF3IP2]      3.45
10    LEKGLEPEPQVPGPAHGPAQEEPW [ZNF232]      5.35
11    TTADLDRKLSFSHSDHSSEMSLPE [SPATS1]      4.82
12     SDEYKIRRERNNIAVRKSRDKAKM [CEBPB]         5
13      DSYSSSRSDLYSSGRDRVGRQERG [RBMX]      4.84
14      LWAGSKGKEFGYFPRDAVQIEEVF [MIA2]      2.77
15    HQLLEPIRDFEARKCPVHGKTMEL [TRIM29]      3.84
16     DYMKEVGVGFATRKVAGMAKPNMI [FABP4]      3.06
17    AGGELGISLNMCLLGALVLLGLGV [PBXIP1]       2.7
18      EDSKELRALRKMVSNMSGPSGEEE [CBY2]      5.25
19    LSLRQTGSPGMIYSTRYGSPKRQL [KCNAB2]      3.17

====

assay_overview: protein stability index of a GFP-peptide fusion (GPS, HEK-293T) (PSI 1-6); higher = more stable
conditions_used: treatment: DMSO; c terminus: a fixed tail appended
Entries and their measured protein stability index follow.
attribute_measured: protein stability index

                       ordered_residues  observed
 0     FYHCSNDDEGDSYSDNPCSCSQSH [SPRY1]      4.28
 1     KPKTTNIELQGVPNDEVHPLLGVK [RBBP5]      4.65
 2    MGGIMAPKDIMTNTHAKSILNSMN [KLHL12]      2.83
 3     YVSLGRLGAAKGALHPGCFAPLHP [CEBPB]      3.44
 4     RVWLKRDSGQYWPSVYHAMPSPCS [WDFY2]      2.26
 5      NSVISVCSSSNLAGNDDSFGSLPS [DLC1]      4.18
 6    DQNASTHTPQSSVKTSVPSSKSSG [CLINT1]      5.02
 7     EKRERALEEVERAILEMKWKVRAE [ZBED2]      3.77
 8     ALGSRGWEPFDWGRLLEALCREEP [FANCE]      2.61
 9    ILKRTGQRYEHGRTLKSYLGLTNQ [ZNF649]      2.44
10   MSVDPACPQSLPCFEASDCKESSP [NANOGP8]      5.44
11     LLTITKAHSNAISNCCFTFSGHFL [WDR88]      3.12
12      KNTFEFLKENNFQPYPLPHVRHMA [CLK3]      2.54
13    GSSSDNRTYRYSNRYCGGPGPPIT [DYRK1B]      2.57
14     YNQQQALIDQRYFQVLCSINSIIH [CEP70]      2.32
15    SKCLVDDGTGRMPTLKKCEDVARP [GALNT9]      4.57
16     ETLLGDPEKRTQYFDPLRNEYFFD [KCNA4]      2.91
17    ELDILPIHPPSGNSDLDPDAQNPM [BTBD10]      5.45
18   YDGMLSDVQSMPKTGILILILSII [MAGEA10]      2.36
19     PCPSTTCCRACSVSFSTGAGGWSN [BET1L]      2.27
20     ENMVTVGFFSCMGTLCIGAAAFSQ [KCNK9]      3.39
21      KDIAPEKQLLNSAVIAQQRRKPDP [DLC1]         5
22       DGEEIPVQKNILAAASPYIRTKLN [GAN]      4.13
23  SQAHSTLKLANHQRPVSRQVTCLR [TRAF3IP2]       3.5
24   PSLSPGSSCVKYLIFLSNFPFSLL [TSPAN10]       2.8
25      CGSARPKPYDPPGEKMVAAKVKGE [ATF4]      4.57
26      QPYPLPHVRHMAYQLCHALRFLHE [CLK3]      2.34
27      AGFCMFVLSLVKKHYRLQFYMFAW [CDS1]      2.05
28    APELVERVQSVDFMRTDPVCQKLL [KLHL14]      3.85
29     QNNENNISCVERGWSTPPKCRSTI [CFHR2]      3.97
30     SNCISGVCSVRGGEGRSRGSANDY [KRT71]      3.93
31   KAVEEELDAEDRPAWNSKLQYILA [SLC6A17]      2.96
32   MWRDLTDEEKQEYLNEYEAEKIEY [SMARCE1]      4.26
33    AGAARVARWRRLRLQQLRRLRGLL [FBXO33]      3.13
34     DYMKEVGVGFATRKVAGMAKPNMI [FABP4]      3.13
35    LMGEIAKATFMYEQFPELMNMLWS [CLINT1]      2.61
36     YSDRTNIISKPVPQTLIMAYDYAK [FEM1C]      2.36

====

assay_overview: protein stability index of a GFP-peptide fusion (GPS, HEK-293T) (PSI 1-6); higher = more stable
conditions_used: treatment: MLN4924 1 uM, 8 h; c terminus: a fixed tail appended
attribute_measured: protein stability index

                     ordered_residues       attribute_measured  observed
0     IITIGYNVYHSYDLPWFRTLSWYF [CDS2]  protein stability index       3.2
1  DALQRYGTSHGAPPARGPRMSYGG [RBMY1A1]  protein stability index      3.82
2   MSNHTRERVTVAKLTLENFYSNLI [STK38L]  protein stability index      2.31
3      SYKARLPLRLFLIIANTMAFQNDV [SCD]  protein stability index       2.5
4  ALSGASQPGPSGAPAQRATRGFLR [RETREG3]  protein stability index      4.78
5    QNNENNISCVERGWSTPPKCRSTI [CFHR2]  protein stability index      4.11
6  ITYESSQVDPGTDLEPGVLMSAQT [EPB41L3]  protein stability index       4.7
7     RDSYSSSSRGAPRGGGRGGSRSDR [RBMX]  protein stability index      5.44
8    GYSGTSDRIRFTVNRRISIVGFGL [BTBD1]  protein stability index      2.87
9     WESRTGDQYSYSSLVMGSQTESAL [LCOR]  protein stability index      3.51

====

assay_overview: protein stability index of a GFP-peptide fusion (GPS, HEK-293T) (PSI 1-6); higher = more stable
conditions_used: treatment: DMSO; c terminus: a fixed tail appended
Below, each of the sequences is paired with its reported protein stability index value.
attribute_measured: protein stability index

                       ordered_residues  observed
 0     TPVSNSLLPEKAFSDIPSPYLRGT [GFOD1]      4.03
 1   SAVADKLDNSRSILKRRYYRQHCT [CTDNEP1]      3.24
 2     VLSEGSPLTEQEESSPSHDRSRTV [SRPK2]      5.35
 3     CPLTRSNGDLSRSLSPSPLGSSAA [FCHO1]      4.17
 4    DDDAQILPSPVQACSEDSLFLRCS [DRICH1]      4.17
 5     PTPKCLRLCFFPFVENGHSESSGQ [CFHR2]      2.54
 6      LVKNLKDTLGLGKTRRKTSARDAS [NCK2]      3.19
 7    CYEHFAELDIPQSVQQNGSIYIHV [CLPTM1]      2.75
 8     SAAPSNDQDGEYCPEVKLKTTGLE [SRPK2]      5.28
 9      YLYTYDSQITDSEHNSSLVSQQTG [ZNF8]      3.73
10      HTFKTRFTQPLLPAFTVWCGSFQV [FSD1]       3.1
11   SWDTESSGSDSGGSSSSSSSSINS [FAM104A]      5.25
12     DEGRLVLEFSLLSYAFGKFPTVVW [SOAT1]      2.33
13    PPYQGGPPRPPMGMRPPVMSQGGR [ZNF207]      4.68
14       MDNYADLSDTELTTLLRRYNIPHG [EMD]      3.19
15   TNCWLIRELNLPFGGMKSSGIGRE [ALDH8A1]      2.31
16   GGLNRETNEKMLKAVFGKHGPISE [RBMY1A1]      3.69
17  TAIRPLKILPWSPEKIGTRFLLYT [PNLIPRP1]      2.23
